Measured values drawn from PubChem BioAssay for this set.

target_of_assay: 6-phosphogluconate dehydrogenase, decarboxylating (Homo sapiens)
experiment_summary: 6PGD enzyme inhibitors, primary screen, biochemical, human, recombinant enzyme, NADPH absorbance (AID 1159550)
run_conditions: recombinant 6PGD, NADPH absorbance 341 nm; at 10 µM; stronger effect = higher value
recorded_metric: inhibition (%)
Output spec: scalar in %, unitless text.

Query: Sample CC(=O)O[C@H]1CCC2(C)C3=C(CCC2C1(C)C)[C@]1(C)CCC(C(C)CCC=C(C)C)[C@@]1(C)CC3 (stereo partly specified) — what was its inhibition?
Response: 12.8

Query: Sample C#C[C@]1(O)CC[C@H]2[C@@H]3CCC4=CC(=O)CC[C@@H]4[C@H]3CC[C@@]21C — what was its inhibition?
Response: -1.74

Query: Sample COC(=O)CCCOc1ccc(Cl)cc1Cl — what was its inhibition?
Response: -8.02

Query: Sample CN1[C@@H]2CC(OC(=O)[C@H](CO)c3ccccc3)C[C@H]1[C@@H]1O[C@@H]12 (stereo partly specified) — what was its inhibition?
Response: 6.42

Query: Sample CCCC(=O)Nc1ccc(OCC(O)CNC(C)C)c(C(C)=O)c1 (stereo unspecified) — what was its inhibition?
Response: 5.09

Query: Sample CC(=O)OC1CCC23CC1(C)CCC2C(C)(C)CC3OC(C)=O (stereo unspecified) — what was its inhibition?
Response: -1.38

Query: Sample C#CC1(O)CCC2C3CCc4cc(O)ccc4C3CCC21C (stereo unspecified) — what was its inhibition?
Response: 14.4

Query: Sample O=C(O)CCCCCCCCCCCCC1C=CCC1 (stereo unspecified) — what was its inhibition?
Response: -14

Query: Sample Oc1ccc2c(c1)OC[C@]1(O)Cc3cc(O)c(O)cc3C21 (stereo partly specified) — what was its inhibition?
Response: 9.03

Query: Sample CC(C)=CCC/C(C)=C/CC/C(C)=C/CO — what was its inhibition?
Response: 1.99

Query: Sample N[C@@H](Cc1cnc[nH]1)C(=O)Nc1ccc2ccccc2c1 — what was its inhibition?
Response: -4.42

----------
experiment_summary: SU-DIPG-XXV glioma cell viability, MIPE5.0 library, qHTS (AID 1347068);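 on IC50: cells exposed to compound for 48 hours before viability readout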
Results filed as inconclusive are left out. Calls of active or inactive are those of the source. No cut-off is given here; in the data, nearly all actives have IC50 up to about 30 µM.
Classes to choose from: 1.0 (active), 0.0 (inactive)

Query: Kindly provide the recorded test outcome for the following compound: N=C(N)c1ccc2cc(OC(=O)c3ccc(N=C(N)N)cc3)ccc2c1
Response: 0.0

Query: Kindly provide the recorded test outcome for the following compound: C1COC(NC(C2CC2)C2CC2)=N1
Response: 0.0

Query: Kindly provide the recorded test outcome for the following compound: Cc1ccccc1C(=O)Nc1ccc(C(=O)N2CCCC(O)c3cc(Cl)ccc32)c(C)c1 (stereo not given)
Response: 0.0

Query: Kindly provide the recorded test outcome for the following compound: Cc1c(C(=O)NN2CCCCC2)nn(-c2ccc(Cl)cc2Cl)c1-c1ccc(Cl)cc1
Response: 0.0

Query: Kindly provide the recorded test outcome for the following compound: C[C@H](CCC(=O)O)[C@H]1CC[C@H]2[C@@H]3[C@@H](O)C[C@@H]4C[C@H](O)CC[C@]4(C)[C@H]3CC[C@]12C
Response: 0.0

Query: Kindly provide the recorded test outcome for the following compound: O=C(O)c1cc(=O)[nH]c(=O)[nH]1
Response: 0.0

Query: Kindly provide the recorded test outcome for the following compound: CN1C2CCC1CC(OC(=O)C(CO)c1ccccc1)C2 (stereo not given)
Response: 0.0

Query: Kindly provide the recorded test outcome for the following compound: O=C1C[C@@H](c2ccc(O)cc2)Oc2cc(O)cc(O)c21
Response: 0.0

Query: Kindly provide the recorded test outcome for the following compound: CC(C)Cn1cnc2c(N)nc3ccccc3c21
Response: 0.0

Query: Kindly provide the recorded test outcome for the following compound: COc1cccc2c1C(=O)c1c(O)c3c(c(O)c1C2=O)C[C@@](O)(C(C)=O)C[C@@H]3O[C@H]1C[C@H](N)[C@H](O)[C@H](C)O1
Response: 1.0

Query: Kindly provide the recorded test outcome for the following compound: COc1ccc2cc([C@H](C)C(=O)O)ccc2c1
Response: 0.0

Query: Kindly provide the recorded test outcome for the following compound: CCN[C@H]1C[C@H](C)S(=O)(=O)c2sc(S(N)(=O)=O)cc21
Response: 0.0

Query: Kindly provide the recorded test outcome for the following compound: CCN(CC)CCOc1ccc(Cc2ccccc2)cc1
Response: 0.0

Query: Kindly provide the recorded test outcome for the following compound: c1ccc2c(Cc3c[nH]c4ccccc34)c[nH]c2c1
Response: 0.0

Query: Kindly provide the recorded test outcome for the following compound: CCOC(=O)[C@H](CCc1ccccc1)N[C@H]1CS[C@H](c2cccs2)CN(CC(=O)O)C1=O
Response: 0.0

Query: Kindly provide the recorded test outcome for the following compound: CCC1=C[C@@H]2CN(C1)Cc1c([nH]c3ccccc13)[C@@](C(=O)OC)(c1cc3c(cc1OC)N(C)[C@H]1[C@@](O)(C(=O)OC)[C@H](OC(C)=O)[C@]4(CC)C=CCN5CC[C@]31[C@@H]54)C2
Response: 1.0

Query: Kindly provide the recorded test outcome for the following compound: Clc1ccc(Cn2c(CN3CCCC3)nc3ccccc32)cc1
Response: 0.0

Query: Kindly provide the recorded test outcome for the following compound: CCC[C@@H]1C[C@@H](C(=O)N[C@@H]([C@H]2O[C@H](SC)[C@H](O)[C@@H](O)[C@H]2O)[C@H](C)Cl)N(C)C1
Response: 0.0

Query: Kindly provide the recorded test outcome for the following compound: Nc1cc(C(Cl)=C(Cl)Cl)c(S(N)(=O)=O)cc1S(N)(=O)=O
Response: 0.0

Query: Kindly provide the recorded test outcome for the following compound: O=P(O)(O)C(O)(Cn1ccnc1)P(=O)(O)O
Response: 0.0

----------
experiment_summary: LFS_MB_P medulloblastoma growth inhibition, cell-based, chromothripsis tumors, cisplatin or BGB combos (AID 1671449);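 further: cells exposed for 96 hours; 0% = vehicle DMSO and 100% = killing by high DMSO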
run_conditions: LFS_MB_P medulloblastoma cells, measured here: combination with BGB IC40, at 0.05 µM
recorded_metric: inhibition
Answer format reminder: number followed by unit.

Query: Sample O=c1[nH]c(=O)n([C@H]2C[C@H](O)[C@@H](CO)O2)cc1C(F)(F)F — what was its inhibition?
Response: -26.7%

Query: Sample CN(N=O)C(=O)NC1C(O)OC(CO)C(O)C1O (configuration not stated) — what was its inhibition?
Response: 9.79%

Query: Sample Nc1ccc2cc3ccc(N)cc3nc2c1 — what was its inhibition?
Response: 22.5%

Query: Sample CN1CCN(c2c(F)cc3c(=O)c(C(=O)O)cn(CCF)c3c2F)CC1 — what was its inhibition?
Response: 22.7%

Query: Sample CCOC(=O)Nc1ccc(NCc2ccc(F)cc2)nc1N — what was its inhibition?
Response: -18.8%

Query: Sample CCn1nc(C(=O)O)c(=O)c2cc3c(cc21)OCO3 — what was its inhibition?
Response: -12.9%

Query: Sample COC1C(OC(N)=O)C(O)C(Oc2ccc3c(O)c(NC(=O)c4ccc(O)c(CC=C(C)C)c4)c(=O)oc3c2C)OC1(C)C (configuration not stated) — what was its inhibition?
Response: -8.09%

Query: Sample CN1C[C@@H]2C[C@H]1CN2c1cc2c(cc1F)c(=O)c(C(=O)O)cn2C1CC1 — what was its inhibition?
Response: -8.41%

Query: Sample O=C(CCCCCCC(=O)Nc1ccccc1)NO — what was its inhibition?
Response: -21.7%

Query: Sample O=c1cc[nH]c(=O)[nH]1 — what was its inhibition?
Response: -9.29%

Query: Sample CN1CCN(c2c(F)cc3c(=O)c(C(=O)O)cn4c3c2OCN4C)CC1 — what was its inhibition?
Response: -36.9%

Query: Sample O=c1c(O)c(-c2ccc(O)c(O)c2)oc2cc(O)ccc12 — what was its inhibition?
Response: 5.54%

----------
experiment_summary: differential killing of epithelial or mesenchymal cells, primary screen, imaging, PC-3E GFP, TEM4-18 mCherry, co-culture (AID 1345086);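 further: normalised mesenchymal count divided by normalised epithelial count so high means epithelial killing; cells exposed to compound for 72 h before imaging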
run_conditions: imaging cell counts, at 1 µM, actives lie on both sides, counts scaled to control wells, 1 = unselective
recorded_metric: red/green cell ratio (normalised)
// response body must contain only the number

Query: Sample CCCCOc1cc(C(=O)OCCN(CC)CC)ccc1N — what was its red/green cell ratio (normalised)?
Response: 0.93

Query: Sample Cc1cc(/C=C/c2ccc3cc(N(C)C)ccc3[n+]2C)c(C)n1-c1ccccc1 — what was its red/green cell ratio (normalised)?
Response: 2.7

Query: Sample CC(=O)N(CC(O)CO)c1c(I)c(C(=O)NCCO)c(I)c(C(=O)NCC(O)CO)c1I (centres undefined) — what was its red/green cell ratio (normalised)?
Response: 0.83

Query: Sample CCCCC(CC)COC(=O)CC(C(=O)OCC(CC)CCCC)S(=O)(=O)O (centres undefined) — what was its red/green cell ratio (normalised)?
Response: 0.91

Query: Sample CCCC(=O)Nc1ccc(OCC(O)CNC(C)C)c(C(C)=O)c1 (centres undefined) — what was its red/green cell ratio (normalised)?
Response: 0.87

Query: Sample NCCCC(O)(P(=O)(O)O)P(=O)(O)O — what was its red/green cell ratio (normalised)?
Response: 1.07

Query: Sample COc1c(C)c2c(c(O)c1C/C=C(\C)CCC(=O)OCCN1CCOCC1)C(=O)OC2 — what was its red/green cell ratio (normalised)?
Response: 0.71

Query: Sample Cn1nnnc1SCC1=C(C(=O)O)N2C(=O)C(NC(=O)C(OC=O)c3ccccc3)C2SC1 (centres undefined) — what was its red/green cell ratio (normalised)?
Response: 0.82

Query: Sample CC(C)CCCC(C)[C@H]1CCC2C3CC=C4CC(=O)CC[C@]4(C)C3CC[C@@]21C (some centres undefined) — what was its red/green cell ratio (normalised)?
Response: 0.87

Query: Sample CCOc1nc2cccc(C(=O)O)c2n1Cc1ccc(-c2ccccc2-c2nn[nH]n2)cc1 — what was its red/green cell ratio (normalised)?
Response: 1.24

Query: Sample Clc1ccccc1CN1CCc2sccc2C1 — what was its red/green cell ratio (normalised)?
Response: 0.9

Query: Sample COc1ccc2c(c1)OCC(Cc1ccc(OC)c(O)c1)C2=O (centres undefined) — what was its red/green cell ratio (normalised)?
Response: 0.88

Query: Sample CC(C)=CCOc1cc2oc(=O)ccc2cc1O — what was its red/green cell ratio (normalised)?
Response: 1.03

Query: Sample CCC(c1ccc(O)cc1)C(CC)c1ccc(O)cc1 (centres undefined) — what was its red/green cell ratio (normalised)?
Response: 0.99

Query: Sample COc1c(O)cccc1O — what was its red/green cell ratio (normalised)?
Response: 0.77

Query: Sample C[C@@H](O)[C@H]1C(=O)N2C(C(=O)O)=C(SCCN=CN)C[C@H]12 — what was its red/green cell ratio (normalised)?
Response: 0.95

Query: Sample CC1(C)[C@@H]2CC[C@@]1(C)C(=O)C2 — what was its red/green cell ratio (normalised)?
Response: 0.84

Query: Sample Nc1ncnc2c1ncn2[C@@H]1O[C@H](CO)[C@@H](O)[C@@H]1O — what was its red/green cell ratio (normalised)?
Response: 0.96

Query: Sample CC(C)=CC1C(CO)C1(C)C (centres undefined) — what was its red/green cell ratio (normalised)?
Response: 0.97

Query: Sample CN1CCc2c(c3ccccc3n2Cc2ccccc2)C1 — what was its red/green cell ratio (normalised)?
Response: 0.9

Query: Sample COc1cc(C)c2c(=O)cc(-c3ccccc3)oc2c1 — what was its red/green cell ratio (normalised)?
Response: 0.85

Query: Sample CCC(C)C(NC)C(=O)O (centres undefined) — what was its red/green cell ratio (normalised)?
Response: 1.02

Query: Sample C[C@@]12C(=O)OC(=O)[C@]1(C)C1CCC2O1 — what was its red/green cell ratio (normalised)?
Response: 0.98

Query: Sample COc1cc(O)c(C(C)=O)c(OC)c1 — what was its red/green cell ratio (normalised)?
Response: 0.74

Query: Sample C[N+]1(C)CCC(OC(=O)C(O)(c2ccccc2)C2CCCC2)C1 (centres undefined) — what was its red/green cell ratio (normalised)?
Response: 0.8

Query: Sample O=C(Nc1ccc(C(=O)O)c(O)c1)c1ccccc1 — what was its red/green cell ratio (normalised)?
Response: 1.04

Query: Sample CC1=C(C/C=C(\C)CCC[C@H](C)CCC[C@H](C)CCCC(C)C)C(=O)c2ccccc2C1=O — what was its red/green cell ratio (normalised)?
Response: 1.1

Query: Sample CCN(CC)CCNC(C(=O)OCCC(C)C)c1ccccc1 (centres undefined) — what was its red/green cell ratio (normalised)?
Response: 1.16

Query: Sample CC(CN(C)C)CN1c2ccccc2Sc2ccccc21 (centres undefined) — what was its red/green cell ratio (normalised)?
Response: 0.95

Query: Sample CN(C)CC/C=C1\c2ccccc2Sc2ccc(Cl)cc21 — what was its red/green cell ratio (normalised)?
Response: 1.04

Query: Sample CC(C)=CCc1c(O)cc2oc(C)cc(=O)c2c1O — what was its red/green cell ratio (normalised)?
Response: 0.93

Query: Sample COc1cc(S(C)=O)ccc1-c1nc2ncccc2[nH]1 (centres undefined) — what was its red/green cell ratio (normalised)?
Response: 1.07

Query: Sample CC(=O)N=c1sc(S(N)(=O)=O)nn1C — what was its red/green cell ratio (normalised)?
Response: 1.22

Query: Sample COc1cc2c(c(OC)c1OC)-c1ccc(OC)c(=O)cc1[C@@H](NC(C)=O)CC2 — what was its red/green cell ratio (normalised)?
Response: 1.19

Query: Sample CN1CCc2cccc3c2C1Cc1ccc(O)c(O)c1-3 (centres undefined) — what was its red/green cell ratio (normalised)?
Response: 1.13

Query: Sample CC1CCc2c(N3CCC(O)CC3)c(F)cc3c(=O)c(C(=O)O)cn1c23 (centres undefined) — what was its red/green cell ratio (normalised)?
Response: 0.89

Query: Sample C=CCCCCCCCCCCCC(O)CC(O)CO (centres undefined) (tested in a mixture with another compound) — what was its red/green cell ratio (normalised)?
Response: 0.87

Query: Sample COc1ccc([C@@H]2CC(=O)c3c(O)cc(O)cc3O2)cc1O — what was its red/green cell ratio (normalised)?
Response: 0.91

Query: Sample Nc1ccc(S(=O)(=O)Nc2ncccn2)cc1 — what was its red/green cell ratio (normalised)?
Response: 1.41

Query: Sample O=C(NCC(O)CO)c1c(I)c(C(=O)NCC(O)CO)c(I)c(N(CCO)C(=O)CO)c1I (centres undefined) — what was its red/green cell ratio (normalised)?
Response: 0.86

Query: Sample COc1cc2ccc(=O)oc2cc1O — what was its red/green cell ratio (normalised)?
Response: 1.11

Query: Sample COc1ccc2c(C)cc(=O)oc2c1 — what was its red/green cell ratio (normalised)?
Response: 1.03

Query: Sample O=S(=O)(O)c1cc(I)c(O)c2ncccc12 — what was its red/green cell ratio (normalised)?
Response: 1

Query: Sample CC(S)C(=O)NCC(=O)O (centres undefined) — what was its red/green cell ratio (normalised)?
Response: 0.9

Query: Sample CN1CCN(c2c(F)cc3c(=O)c(C(=O)O)cn4c3c2OCN4C)CC1 — what was its red/green cell ratio (normalised)?
Response: 0.85

Query: Sample CC(C(=O)O)c1ccc(N2Cc3ccccc3C2=O)cc1 (centres undefined) — what was its red/green cell ratio (normalised)?
Response: 1.39

Query: Sample N=C(N)N1CCc2ccccc2C1 — what was its red/green cell ratio (normalised)?
Response: 0.87

Query: Sample Oc1ccc(O)cc1 — what was its red/green cell ratio (normalised)?
Response: 1.14

Query: Sample O=C(/C=C/c1ccccc1)c1ccc(O)cc1 — what was its red/green cell ratio (normalised)?
Response: 1.04
